SH2 binding enrichment reference
- target_or_system: SHP2-C SH2;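 also: peptide library displayed on the E. coli surface as eCPX fusions, selected cells deep-sequenced, score is each peptide's frequency after selection divided by its frequency in the input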
- experiment: SH2 binding enrichment of the phosphorylated peptide, bacterial display (enrichment ratio); higher = better substrate or ligand; peptides without Tyr show the background
measured_attribute: SH2 binding enrichment

[[record]]
polymer_sequence = "YSQNIYIQNRN [PKP2_Y631]"
value_reported = 0.906

[[record]]
polymer_sequence = "AASHRYDLGGL [QPRT_Y162]"
value_reported = 0.607

[[record]]
polymer_sequence = "SMAKYYASEIA [ACADSB_Y373]"
value_reported = 0.634

[[record]]
polymer_sequence = "TGQERYRAITS [RAB11B_Y73_A68T]"
value_reported = 0.695

[[record]]
polymer_sequence = "KDKLPYPYDDP [GPX2_Y125]"
value_reported = 0.757

[[record]]
polymer_sequence = "LFLACYCIGGG [UBD_Y161]"
value_reported = 1.3

[[record]]
polymer_sequence = "LLREWYLPDPF [SIX3_Y225_Q227P_YF]"
value_reported = 1.06

[[record]]
polymer_sequence = "RREWYYEVIIA [BACE1_Y260_V265A]"
value_reported = 0.55

[[record]]
polymer_sequence = "SAVTGYRVNVI [FN1_Y937_D940N]"
value_reported = 0.823

[[record]]
polymer_sequence = "YQRITYHNWRH [PDE6B_Y556_R552Q]"
value_reported = 1.68

[[record]]
polymer_sequence = "GASRRYGSGVS [NEU1_Y242_W240R]"
value_reported = 0.565

[[record]]
polymer_sequence = "IKNPQYFSDAC [NTRK1_Y496_E492K]"
value_reported = 0.895

[[record]]
polymer_sequence = "ENRKFYKDLKE [PURA_Y156_M157K_YF]"
value_reported = 0.739

[[record]]
polymer_sequence = "QFQEKYKQVEQ [HCN4_Y531_YF]"
value_reported = 0.876

[[record]]
polymer_sequence = "DQGEQYKKELE [LMNA_Y259_V256G]"
value_reported = 0.716

[[record]]
polymer_sequence = "IKNFKYGIEEH [GJA1_Y137_K134N]"
value_reported = 0.456

[[record]]
polymer_sequence = "SSQAHYRLSAF [ADAMTS9_Y100]"
value_reported = 0.721

[[record]]
polymer_sequence = "LGIDRYHAIVF [NPSR1_Y147_S143G_YF]"
value_reported = 0.689

[[record]]
polymer_sequence = "DLSEVYKPRRK [CCDC93_Y176]"
value_reported = 0.481

[[record]]
polymer_sequence = "RGRSTCYWPRP [GAGE12J_Y9_Y9C]"
value_reported = 0.714

[[record]]
polymer_sequence = "NKKYHYRELPV [ERN2_Y860_H858Y]"
value_reported = 1.12

[[record]]
polymer_sequence = "CTTIHYFFMCN [TP53_Y234_N235Y_YF]"
value_reported = 0.883

[[record]]
polymer_sequence = "PGAPAYCVLME [MYO5A_Y1245_R1246C]"
value_reported = 0.549

[[record]]
polymer_sequence = "LEVPLYKNGVK [CPS1_Y1069_A1065E]"
value_reported = 0.491

[[record]]
polymer_sequence = "DTFDPYLDIAL [USP36_Y268_V271I_YF]"
value_reported = 0.548

[[record]]
polymer_sequence = "KAIMTYVFSFY [ACTN4_Y260_S262F]"
value_reported = 1.08

[[record]]
polymer_sequence = "PGLSSYGVPAS [FLNB_Y1530]"
value_reported = 0.658

[[record]]
polymer_sequence = "YRDMDYRSYPH [RBM10_Y41_R46H]"
value_reported = 0.825

[[record]]
polymer_sequence = "AAVDTVCRHNY [HLA-DRB1_Y107_Y107V]"
value_reported = 0.636


###

- target_or_system: Fes (UniProt P07332)
- Sequence (P07332 whole entry, looked up): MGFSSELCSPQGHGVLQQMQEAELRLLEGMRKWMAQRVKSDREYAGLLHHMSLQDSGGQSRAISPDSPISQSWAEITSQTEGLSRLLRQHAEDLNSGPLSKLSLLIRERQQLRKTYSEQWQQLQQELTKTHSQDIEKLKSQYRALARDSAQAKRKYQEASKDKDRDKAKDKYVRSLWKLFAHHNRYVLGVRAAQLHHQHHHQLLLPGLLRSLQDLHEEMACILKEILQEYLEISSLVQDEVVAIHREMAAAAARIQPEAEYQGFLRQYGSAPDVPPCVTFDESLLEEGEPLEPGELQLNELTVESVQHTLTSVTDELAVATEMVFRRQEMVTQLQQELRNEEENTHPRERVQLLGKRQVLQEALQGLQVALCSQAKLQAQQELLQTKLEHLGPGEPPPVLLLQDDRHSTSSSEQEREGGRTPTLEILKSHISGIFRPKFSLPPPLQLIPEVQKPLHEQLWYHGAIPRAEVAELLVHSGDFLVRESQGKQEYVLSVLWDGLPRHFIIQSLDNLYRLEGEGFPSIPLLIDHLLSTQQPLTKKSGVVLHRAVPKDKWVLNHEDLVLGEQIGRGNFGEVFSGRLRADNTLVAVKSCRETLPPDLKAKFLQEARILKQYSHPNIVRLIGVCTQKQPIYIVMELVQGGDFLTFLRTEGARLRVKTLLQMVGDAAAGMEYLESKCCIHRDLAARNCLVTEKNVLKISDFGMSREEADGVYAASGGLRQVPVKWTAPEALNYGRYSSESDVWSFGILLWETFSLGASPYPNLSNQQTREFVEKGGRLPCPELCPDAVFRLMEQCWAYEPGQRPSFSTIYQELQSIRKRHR
- experiment: phosphorylation enrichment, bacterial display (enrichment ratio); higher = better substrate or ligand; peptides without Tyr show the background
Quick list: phosphorylation enrichment per entry.
measured_attribute: phosphorylation enrichment

[[record]]
polymer_sequence = "NLVSEYQQFQD [TUBB3_Y422_D417N_YF]"
target_or_system = "Fes (UniProt P07332)"
value_reported = 1.14

[[record]]
polymer_sequence = "TVLWWYTGTRP [UGT1A1_Y337_R336W]"
target_or_system = "Fes (UniProt P07332)"
value_reported = 1.32

[[record]]
polymer_sequence = "KNNDGNIDFAE [MCFD2_Y135_Y135N_YF]"
target_or_system = "Fes (UniProt P07332)"
value_reported = 1.26

[[record]]
polymer_sequence = "RSYSPCDYQPC [TNS1_Y796_Y796C]"
target_or_system = "Fes (UniProt P07332)"
value_reported = 0.935

[[record]]
polymer_sequence = "GASRRYGSGVS [NEU1_Y242_W240R]"
target_or_system = "Fes (UniProt P07332)"
value_reported = 0.539

[[record]]
polymer_sequence = "ACEVLYNIVFM [NCF2_Y125_A128V]"
target_or_system = "Fes (UniProt P07332)"
value_reported = 1.93

[[record]]
polymer_sequence = "DDDPEDRKFLE [UPF3B_Y160_Y160D]"
target_or_system = "Fes (UniProt P07332)"
value_reported = 1.24

[[record]]
polymer_sequence = "FSTPPYLLEAA [BRIP1_Y921_S919P_YF]"
target_or_system = "Fes (UniProt P07332)"
value_reported = 1

[[record]]
polymer_sequence = "RNFGTYTAGLS [RHBDD1_Y264_D262G_YF]"
target_or_system = "Fes (UniProt P07332)"
value_reported = 0.495

[[record]]
polymer_sequence = "QSSALYEDCYL [ASS1_Y83_R86C]"
target_or_system = "Fes (UniProt P07332)"
value_reported = 2.95

[[record]]
polymer_sequence = "GSSSSCGQHGS [HRNR_Y517_Y517C]"
target_or_system = "Fes (UniProt P07332)"
value_reported = 0.622

[[record]]
polymer_sequence = "DLSEVYKPRRK [CCDC93_Y176]"
target_or_system = "Fes (UniProt P07332)"
value_reported = 0.623

[[record]]
polymer_sequence = "ELAVNYQEQAS [SLC9A9_Y591_I589V]"
target_or_system = "Fes (UniProt P07332)"
value_reported = 1.06


###

- target_or_system: Fyn (UniProt P06241)
- Sequence (P06241 whole entry, looked up): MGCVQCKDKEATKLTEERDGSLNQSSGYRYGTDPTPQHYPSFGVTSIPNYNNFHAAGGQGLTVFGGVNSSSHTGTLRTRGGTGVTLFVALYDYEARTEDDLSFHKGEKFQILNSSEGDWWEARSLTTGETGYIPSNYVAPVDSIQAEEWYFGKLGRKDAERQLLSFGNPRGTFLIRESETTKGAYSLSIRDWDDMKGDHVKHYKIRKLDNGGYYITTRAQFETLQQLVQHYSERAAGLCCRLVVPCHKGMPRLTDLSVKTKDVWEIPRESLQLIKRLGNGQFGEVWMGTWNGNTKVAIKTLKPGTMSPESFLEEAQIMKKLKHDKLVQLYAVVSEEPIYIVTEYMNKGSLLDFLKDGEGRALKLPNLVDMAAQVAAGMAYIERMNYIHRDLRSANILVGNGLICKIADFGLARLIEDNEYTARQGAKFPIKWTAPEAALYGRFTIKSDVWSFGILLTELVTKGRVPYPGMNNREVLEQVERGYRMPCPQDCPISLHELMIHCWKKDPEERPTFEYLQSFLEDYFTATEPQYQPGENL
- experiment: phosphorylation enrichment, bacterial display (enrichment ratio); higher = better substrate or ligand; peptides without Tyr show the background
We begin with a simple list: items and their reported phosphorylation enrichment.
measured_attribute: phosphorylation enrichment

[[record]]
polymer_sequence = "YGGLRYGYGGL [KRTAP20-2_Y13_V17G]"
value_reported = 0.959

[[record]]
polymer_sequence = "GRQVIYTENER [GPR143_Y231_G229V]"
value_reported = 0.407

[[record]]
polymer_sequence = "VMIFAYLLHRG [PTEN_Y138_C136Y_YF]"
value_reported = 0.352

[[record]]
polymer_sequence = "FKGKKYKPLDL [RPL35_Y78_YF]"
value_reported = 0.467

[[record]]
polymer_sequence = "LSRDVYEEDSY [RET_Y900]"
value_reported = 0.503

[[record]]
polymer_sequence = "TVLWWYTGTRP [UGT1A1_Y337_R336W]"
value_reported = 0.4

[[record]]
polymer_sequence = "RGRSTCYWPRP [GAGE12J_Y9_Y9C]"
value_reported = 0.599

[[record]]
polymer_sequence = "RKLVDYNSARH [BIN1_Y150_D151N]"
value_reported = 0.389

[[record]]
polymer_sequence = "PEVSGYCHYAD [TG_Y234_C237Y]"
value_reported = 0.506

[[record]]
polymer_sequence = "RGGWAYVLHPT [TRMT61A_Y67_V66A]"
value_reported = 0.505

[[record]]
polymer_sequence = "KILGRYFETSS [PAX2_Y72_G76S_YF]"
value_reported = 0.374

[[record]]
polymer_sequence = "PSQRHYVYYYS [PTEN_Y174_R173H]"
value_reported = 2.84

[[record]]
polymer_sequence = "QDLLLYQTHSE [PKHD1_Y255_F253L]"
value_reported = 1.16

[[record]]
polymer_sequence = "ALTRSYIREKV [CYP2C8_Y243]"
value_reported = 0.422

